Tested on: human NOD2 signaling
Method notes: Inhibition of human NOD2 signaling in HEK-Blue-hNOD2 cells (L18-MDP stimulated, SEAP reporter)
Type: cell-based
Recorded conditions: Homo sapiens, HEK-Blue hNOD2, HEK-Blue-hNOD2 cells, NOD2 ligand stimulation, SEAP reporter; read-out: hNOD2 IC50
pIC50: −log10 of the molar value.
Reported property: pIC50

[
  {
    "Molecule": "Cc1cc(CC(=O)Nc2cnn(C34CC(C3)C4)c2)ccc1Oc1ccnc2ccc(C(N)=O)cc12 [Compound 499]",
    "Tested on": "human NOD2 signaling",
    "Readout value": 8.96
  }
]

a = [2H]C([2H])([2H])NC(=O)c1ccc2nccc(Oc3c(C)cc(CC(=O)Nc4cnn(C56CC(C5)C6)c4)cc3Cl)c2c1 [Compound 592]
b = CNC(=O)c1ccc2nccc(Oc3c(C)cc(CC(=O)Nc4cnn(C(C)(C)C)c4)cc3F)c2c1 [Compound 469]
stdin: Of a versus b , which is the one with smaller reported pIC50? // return label of chosen record
stdout: a
(a: 7.10, b: 8.80)

1 = CCS(=O)(=O)c1ccc2nccc(Oc3ccc(CC(=O)Nc4cnn(C(C)(C)C)c4)cc3C)c2c1 [Compound 99]
2 = Cc1c(Oc2ccnc3ccc(C(N)=O)cc23)cc(F)c(CC(=O)Nc2cnn(C34CC(C3)C4)c2)c1F [Compound 556]
stdin: Hi team, can someone confirm which has the larger pIC50: 1 or 2 ? Thanks. // caller expects the label of the chosen entry
stdout: 1

A = Cc1nnc(-c2ccc3nccc(Oc4cc(F)c(CC(=O)Nc5cnn(C(C)(C)C)c5)cc4C)c3c2)o1 [Compound 482]
B = Cc1cc(CC(=O)Nc2cnn(C(C)(C)C)c2)c(F)cc1Oc1ccnc2ccc(-c3ncccc3C(F)(F)F)cc12 [Compound 522]
stdin: Parameter metric = pIC50. Return the lower-valued option from A and B . Returns: label corresponding to the selected item.
stdout: B
(B: 7.59, A: 9.52)

I = Cc1cc(CC(=O)Nc2nnc(C(C)(C)C)s2)c(F)cc1Oc1ccnc2ccc(S(C)(=O)=O)cc12 [Compound 443]
II = CC(C)(C)n1cc(NC(=O)Cc2ccc(Oc3ccnc4ccc(S(C)(=N)=O)cc34)c(Cl)c2)cn1 (single isomer, unassigned) [Compound 197]
III = CCS(=N)(=O)c1ccc2nccc(Oc3ccc(CC(=O)Nc4cnn(C56CC(C5)C6)c4)cc3C)c2c1 (single isomer, unassigned) [Compound 593]
stdin: Order the entries by their reported pIC50, beginning at the minimum. Output spec: a listing of the labels in the requested order.
stdout: III, II, I
(III: 8.17, II: 8.40, I: 8.96)

====

Tested on: RIPK2 enzyme (Homo sapiens, UniProt O43353)
Construct: purchased Carna 09-128
Sequence (O43353 1-299 limits assumed): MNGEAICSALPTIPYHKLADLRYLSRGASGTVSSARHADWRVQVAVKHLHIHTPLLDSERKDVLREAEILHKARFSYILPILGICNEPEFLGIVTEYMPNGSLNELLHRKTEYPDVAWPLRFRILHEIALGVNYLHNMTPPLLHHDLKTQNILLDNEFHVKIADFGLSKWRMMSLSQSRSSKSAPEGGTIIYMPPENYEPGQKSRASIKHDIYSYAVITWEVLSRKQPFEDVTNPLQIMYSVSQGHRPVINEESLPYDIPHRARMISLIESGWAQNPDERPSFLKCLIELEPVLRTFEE
Method notes: RIPK2 inhibition (ADP-Glo Kinase Assay)
Format: biochemical
Recorded conditions: RIPK2 5 nM, ATP 150 μM, MBP substrate, read-out: RIPK2 IC50
Reported property: IC50

[
  {
    "Compound": "Cc1c(Oc2ccnc3ccc(C(=O)N(CCO)CCO)cc23)ccc(CC(=O)Nc2cnn(C(C)(C)C)c2)c1F",
    "IC50": "< 2.5 nM"
  },
  {
    "Compound": "Cc1c(Oc2ccnc3ccc(S(=N)(=O)C4CC4)cc23)ccc(CC(=O)Nc2cnn(C34CC(C3)C4)c2)c1F (single isomer, unassigned) [Compound 528]",
    "IC50": "< 2.5 nM"
  },
  {
    "Compound": "CCS(=O)(=O)c1ccc2nccc(Oc3ccc(CC(=O)Nc4cnn(C(C)(C)C)c4)cc3C)c2c1",
    "IC50": "< 2.5 nM"
  }
]

Entry Cc1cc(CC(=O)Nc2cnn(C(C)(C)C)c2)ccc1Oc1ccnc2ccc(S(=O)(=O)CC3CCOC3)cc12 (single isomer, unassigned) [Compound 242] — recorded IC50 = < 2.5 nM

The reported IC50 of the compound Cc1cc(CC(=O)Nc2cnn(C(C)(C)C)c2)c(F)cc1Oc1ccnc2ccc(O[C@H]3C[C@H]4CC[C@@H](C3)N4)cc12 was < 2.5 nM

Data point: Cc1c(Oc2ccnc3ccc(C(=O)N4CCOCC4)cc23)ccc(CC(=O)Nc2cnn(C(C)(C)C)c2)c1F ; IC50 = < 2.5 nM

Given item Cc1c(Oc2ccnc3ccc(S(=N)(=O)C4CCC4)cc23)ccc(CC(=O)Nc2cnn(C(C)(C)C)c2)c1F (single isomer, unassigned) [Compound 542] , the value recorded as its IC50 is < 2.5 nM

In plain terms, Cc1nc(CC(=O)Nc2cnn(C(C)(C)C)c2)ccc1Oc1ccnc2cc(F)c(C(N)=O)cc12 has a documented IC50 of < 2.5 nM

The compound Cc1cc(CC(=O)Nc2cnn(C3CCC3)c2)ccc1Oc1ccnc2ccc(S(C)(=O)=O)cc12 showed IC50 equal to < 2.5 nM

Recorded IC50 (compound Cc1c(Oc2ccnc3ccc(S(C)(=O)=O)cc23)ccc(CC(=O)Nc2cc(C(C)(C)CO)n[nH]2)c1F ): < 2.5 nM

Record summary for CCS(=O)(=O)c1ccc2nccc(Oc3ccc(CC(=O)Nc4cnn(C(C)(C)C)c4)c(F)c3C)c2c1 : reported IC50 = < 2.5 nM

IC50 measured on Cc1cc(CC(=O)Nc2cnn(C(C)(C)C)c2)ccc1Oc1ccnc2ccc(N3CCC(O)C3=O)cc12 (single isomer, unassigned) [Compound 327] = < 2.5 nM

The measured IC50 associated with [2H]C([2H])([2H])NC(=O)c1cc2c(Oc3c(C)cc(CC(=O)Nc4cnn(C(C)(C)C)c4)cc3F)ccnc2cc1F reads < 2.5 nM

====

System: TNF-alpha secretion in human whole blood
Method notes: Inhibition of TNF-alpha secretion in human whole blood (IFN-gamma primed, L18-MDP stimulated)
Type: cell-based
Recorded conditions: Homo sapiens, 16 h, L18-MDP 100 ng/mL, read-out: Human Whole Blood TNFα IC50
pIC50: −log10 of the molar value.
Reported property: pIC50

Worked set:
[
  {
    "Molecule": "Cc1cc(CC(=O)Nc2cnn(C(C)(C)C)c2)c(F)cc1Oc1ccnc2ccc(C(N)=O)cc12 [Compound 359]",
    "pIC50": 8.40
  },
  {
    "Molecule": "Cc1cc(CC(=O)Nc2noc(C(C)(C)C)n2)ccc1Oc1ccnc2ccc(S(C)(=O)=O)cc12 [Compound 182]",
    "pIC50": 7.85
  }
]

a = CC(C)(C)n1cc(NC(=O)Cc2cc(Cl)c(Oc3ccnc4ccc(S(C)(=O)=O)cc34)cc2F)cn1 [Compound 429]
b = Cc1cc(CC(=O)Nc2cnn(C(C)(C)C)c2)ccc1Oc1ccnc2ccc(OC3CCNCC3)cc12 [Compound 83]
stdin: Compare a and b by numeric pIC50 and name the larger one. Your answer should be the label of the entry you select.
stdout: b
(b: 8.52, a: 7.74)

====

Tested on: RIPK2 enzyme (Homo sapiens)
Construct: purchased Carna 09-128
Method notes: RIPK2 inhibition (ADP-Glo Kinase Assay)
Format: biochemical
Recorded conditions: RIPK2 5 nM, ATP 150 μM, MBP substrate, read-out: RIPK2 IC50
Reported property: IC50 (nM)

[
  {
    "Mol": "COC(C)(C)c1ccc2nccc(Oc3cnc(CC(=O)Nc4cnn(C(C)(C)C)c4)c(F)c3)c2c1",
    "IC50 [nM]": 5.2
  }
]

1 = Cc1cc(CC(=O)Nc2cnn(C(C)(C)C)c2)c(Cl)cc1Oc1ccnc2ccc(S(C)(=O)=O)cc12
2 = CN1CCN(c2ccc3nccc(Oc4ccc(CC(=O)Nc5cnn(C(C)(C)C)c5)c(F)c4)c3c2)C(=O)C1
stdin: Lab notebook, comparison: 1 versus 2 , higher IC50 goes to which? Returns: label corresponding to the selected item.
stdout: 1
(1: 8.1 nM, 2: 4.5 nM)

====

Tested on: RIPK2 enzyme (Homo sapiens)
Construct: purchased Carna 09-128
Method notes: RIPK2 inhibition (ADP-Glo Kinase Assay)
Assay type: biochemical
Recorded conditions: RIPK2 5 nM, ATP 150 μM, MBP substrate, read-out: RIPK2 IC50
Quick reference: IC50 of the listed items.

Here's what some known entries look like.
[
  {
    "Compound": "Cc1c(Oc2ccnc3ccc(N4CCOC4=O)cc23)ccc(CC(=O)Nc2cnn(C(C)(C)C)c2)c1F [Compound 298]",
    "Readout value": "< 2.5 nM"
  },
  {
    "Compound": "Cc1c(Oc2ccnc3ccc(S(=O)(=O)C4CC(O)C4)cc23)ccc(CC(=O)Nc2cnn(C(C)(C)C)c2)c1F (single isomer, unassigned) [Compound 285]",
    "Readout value": "< 2.5 nM"
  },
  {
    "Compound": "CC(C)(C)n1cc(NC(=O)Cc2ccc(Oc3ccnc4ccc(S(C)(=N)=O)cc34)cc2F)cn1 (single isomer, unassigned) [Compound 69]",
    "Readout value": "6.9 nM"
  },
  {
    "Compound": "COc1ccc2ncnc(Oc3ccc(CC(=O)Nc4cc(C(C)(C)C)n(C)n4)c(F)c3)c2c1 [Compound 37]",
    "Readout value": "7.8 nM"
  },
  {
    "Compound": "Cc1cc(CC(=O)Nc2cnn(C(C)(C)C)c2)c(F)cc1Oc1ccnc2ccc(C(=O)NC(C)C)cc12 [Compound 455]",
    "Readout value": "< 2.5 nM"
  }
]

Considering Cc1cc(CC(=O)Nc2cnn(C(C)C)c2)ccc1Oc1ccnc2ccc(S(C)(=O)=O)cc12 [Compound 212] , its IC50 with RIPK2 enzyme (Homo sapiens) was recorded as < 2.5 nM

// returns IC50 for Cc1cc(CC(=O)Nc2cnn(C(C)(C)C)c2)ccc1Oc1ccnc2cc(OCC(F)(F)F)c(S(C)(=O)=O)cc12 [Compound 219] with RIPK2 enzyme (Homo sapiens); value = < 2.5 nM

For the compound Cc1cc(CC(=O)Nc2cnn(C(C)(C)C)c2)c(F)cc1Oc1ccnc2ccc(S(=O)(=O)C3CC3)cc12 [Compound 416] , the measured IC50 on RIPK2 enzyme (Homo sapiens) was < 2.5 nM

// IC50 (RIPK2 enzyme (Homo sapiens)) for CNC(=O)c1ccc2ncnc(Oc3ccc(CC(=O)Nc4cnn(C(C)(C)C)c4)c(F)c3)c2c1 [Compound 25] = 4.3 nM

Here CS(=O)(=O)c1ccc2nccc(Oc3ccc(CC(=O)Nc4cc(C5CC5)[nH]n4)c(F)c3)c2c1 [Compound 145] was tested on RIPK2 enzyme (Homo sapiens), and its IC50 came to 3.1 nM

Record CC(C)(C)n1cc(NC(=O)Cc2ccc(Oc3ccnc4ccc(S(=O)(=O)C5CCNCC5)cc34)cc2F)cn1 [Compound 127] / RIPK2 enzyme (Homo sapiens), IC50 recorded as < 2.5 nM

Given the compound CC(C)(C)n1cc(NC(=O)Cc2ccc(Oc3ccnc4ccc(S5(=O)=NCCCC5)cc34)cc2F)cn1 (centres unmarked) [Compound 67] and test system RIPK2 enzyme (Homo sapiens), the measured IC50 is < 2.5 nM

Record CC(C)(C)n1cc(NC(=O)Cc2cc(Cl)c(Oc3ccnc4ccc(CS(C)(=O)=O)cc34)cc2F)cn1 [Compound 561] / RIPK2 enzyme (Homo sapiens), IC50 recorded as < 2.5 nM

Query Cc1c(Oc2ccnc3ccc(S(=O)(=O)C4CC(N)C4)cc23)ccc(CC(=O)Nc2cnn(C(C)(C)C)c2)c1F (single isomer, unassigned) [Compound 287] on RIPK2 enzyme (Homo sapiens); IC50 returned: < 2.5 nM
